assay-remarks: Mouse PK studies after oral and IV dosing
Assay type: in vivo
experimental-setup: in vivo, po, 3 mg/kg
reported-property: log10 Cmax (log10 of the value in ng/mL)
Please note: log10 values; quantity Cmax; unit ng/mL.

C[C@H]1CC2(CCN(c3ccc(C(=O)N4CCC(N5CCN(c6ccc7c(c6)C(=O)N(C6CCC(=O)NC6=O)C7=O)CC5)CC4)cc3)CC2)CN1c1ccc(C#N)c(Cl)c1 (some centres unmarked) [Cpd. No. 443] | 3.27
C[C@H]1CC2(CCN(c3cnc(C(=O)N4CCC(CN5CCN(c6ccc7c(c6)C(=O)N(C6CCC(=O)NC6=O)C7=O)CC5)CC4)cn3)CC2)CN1c1ccc(C#N)c(Cl)c1 (some centres unmarked) [Cpd. No. 492] | 1.77
C[C@H]1CC2(CCN(c3ccc(C(=O)N4CCC(CN5CCN(c6cc7c(cc6F)C(=O)N(C6CCC(=O)NC6=O)C7=O)CC5)CC4)cc3)CC2)CN1c1ccc(C#N)c(Cl)c1 (some centres unmarked) [Cpd. No. 444] | 3.10
C[C@H]1CC2(CCN(c3ccc(C(=O)N4CCN(CC5CN(c6cc7c(cc6F)C(=O)N(C6CCC(=O)NC6=O)C7=O)C5)CC4)cc3)CC2)CN1c1ccc(C#N)c(Cl)c1 (some centres unmarked) [Cpd. No. 502] | 2.46

For the next question, use this molecule.
Req: Check the records and state log10 Cmax for C[C@H]1CC2(CCN(c3ccc(C(=O)N4CCC(CN5CCN(c6ccc7c(c6)C(=O)N(C6CCC(=O)NC6=O)C7=O)CC5)CC4)cc3)CC2)CN1c1ccc(C#N)c(Cl)c1 (some centres unmarked) [Cpd. No. 442]
Resp: 2.93

Values compiled from patent US20220380368A1.
